These data points were gathered from ChEMBL document CHEMBL4325827.

Give IC50 for every item shown.
# Tested on: NCI-H460
# experiment.summary: Antiproliferative activity against human NCI-H460 cells after 72 hrs by CellTiter 96 aqueous nonradioactive cell proliferation assay
# Type: functional, cell-based
# condition.info: NCI-H460, 72 h
Output spec: scalar in nM, unitless text.

Looking up C=CC[C@H]1C[C@]2([C@H](C)Cc3c(F)cc(OC)cc3F)OCOC2=CC1=O , I see its IC50 listed as 2500

Looking up C=CC[C@H]1C[C@]2([C@@H](C)Cc3ccc(OC)cc3)OCOC2=CC1=O , I see its IC50 listed as 90

Looking up C=CC[C@H]1C[C@]2(C(C)Cc3ccc(OCC)cc3)OCOC2=CC1=O (stereo partly drawn) , I see its IC50 listed as 280

====

# System: UO-31
# experiment.summary: Antiproliferative activity against taxane-resistant human UO31 cells after 72 hrs by CellTiter 96 aqueous nonradioactive cell proliferation assay
# Assay type: functional, cell-based
# condition.info: UO-31, 72 h
Give pIC50 for every item shown.
Please express pIC50 as -log10 of the molar concentration.

Looking up CC(=O)O[C@H]1C(=O)[C@@]2(C)[C@H]([C@H](OC(=O)c3ccccc3)[C@]3(O)C[C@H](OC(=O)[C@H](O)[C@@H](NC(=O)c4ccccc4)c4ccccc4)C(C)=C1C3(C)C)[C@]1(OC(C)=O)CO[C@@H]1C[C@@H]2O , I see its pIC50 listed as 6.62

Looking up C=CC[C@H]1C[C@]2([C@H](C)Cc3cc(O)c(OC)cc3F)OCOC2=CC1=O , I see its pIC50 listed as 8.15

====

# Tested on: NCI-H460
# experiment.summary: Antiproliferative activity against human NCI-H460 cells after 72 hrs by CellTiter 96 aqueous nonradioactive cell proliferation assay
# Format: functional, cell-based
# condition.info: NCI-H460, 72 h
Recorded IC50 determines the group label, using Low = under 100 nM, Mid = from 100 nM up to 600 nM, High = 600 nM and over

Class label required: C=CC[C@H]1C[C@]2([C@@H](C)Cc3ccc(OC)c(F)c3)OCOC2=CC1=O
Low

Class label required: C=CC[C@H]1C[C@]2([C@@H](C)Cc3cc(C)c(OC)cc3F)OCOC2=CC1=O
High

Class label required: C=CC[C@H]1C[C@]2([C@@H](C)Cc3ccc(OC)nc3)OCOC2=CC1=O
Mid

Class label required: C=CC[C@H]1C[C@]2([C@@H](C)Cc3ccc(OC)c(Cl)c3)OCOC2=CC1=O
High

Class label required: C=CC[C@H]1C[C@]2([C@@H](C)Cc3ccc(OC)cc3F)OCOC2=CC1=O
Low

Class label required: C=CC[C@H]1C[C@]2([C@H](C)Cc3cc(O)c(OC)cc3F)OCOC2=CC1=O
Low

Class label required: C=CC[C@H]1C[C@]2([C@@H](C)Cc3cc(F)c(OC)cc3F)OCOC2=CC1=O
Low

Class label required: C=CC[C@H]1C[C@]2([C@@H](C)Cc3cnc(OC)c(OC)c3)OCOC2=CC1=O
High

Class label required: C=CC[C@H]1C[C@]2([C@@H](C)Cc3cc(NC(C)=O)c(OC)cc3F)OCOC2=CC1=O
Low

Class label required: C=CC[C@H]1C[C@]2([C@@H](C)Cc3cc(O)c(OC)cc3F)OCOC2=CC1=O
Low

Class label required: C=CC[C@H]1C[C@]2([C@@H](C)Cc3ccc(O)cc3)OCOC2=CC1=O
High

Class label required: C=CC[C@H]1C[C@]2([C@@H](C)Cc3ccc(OC)c(O)c3)OCOC2=CC1=O
Low

Class label required: C=CC[C@H]1C[C@]2([C@H](C)Cc3ccc(OC)c(OC)c3)OCOC2=CC1=O
Mid

Class label required: C=CC[C@H]1C[C@]2(C(C)Cc3ccc(F)cc3)OCOC2=CC1=O (stereo partly drawn)
High

Class label required: C=CC[C@H]1C[C@]2(CCc3ccc(OC)c(OC)c3)OCOC2=CC1=O
High

Class label required: C=CC[C@H]1C[C@]2([C@@H](C)Cc3ccccc3)OCOC2=CC1=O
High

Class label required: C=CC[C@H]1C[C@]2([C@@H](C)Cc3ccc(OC)c(C#N)c3)OCOC2=CC1=O
Mid

Class label required: C=CC[C@H]1C[C@]2(C(C)Cc3cc(C(N)=O)c(OC)cc3F)OCOC2=CC1=O (stereo partly drawn)
Mid

Class label required: C=CC[C@@H]1C[C@]2([C@H](C)Cc3ccc(OC)c(OC)c3)OCOC2=CC1=O
High

Class label required: C=CC[C@H]1C[C@]2([C@@H](C)Cc3cccc(OC)c3)OCOC2=CC1=O
High

Class label required: C=CC[C@H]1C[C@]2([C@@H](C)Cc3ccc(OC)c(C(N)=O)c3)OCOC2=CC1=O
Low

Class label required: C=CC[C@H]1C[C@]2([C@@H](C)Cc3ccc(OC(F)(F)F)cc3)OCOC2=CC1=O
High

Class label required: C=CC[C@H]1C[C@]2([C@@H](C)Cc3ccc(OC)c(NC(C)=O)c3)OCOC2=CC1=O
Mid

Class label required: C=CC[C@H]1C[C@]2(C(C)Cc3ccc(OC)c(N)c3)OCOC2=CC1=O (stereo partly drawn)
Mid

Class label required: C=CC[C@H]1C[C@]2([C@@H](C)Cc3ccc(OC)c(C)c3)OCOC2=CC1=O
High

Class label required: C=CC[C@H]1C[C@]2([C@@H](C)Cc3ccc(OC(C)=O)cc3)OCOC2=CC1=O
High

Class label required: C=CC[C@H]1C[C@]2([C@@H](C)Cc3cc(N)c(OC)cc3F)OCOC2=CC1=O
Mid

Class label required: C=CC[C@H]1C[C@]2([C@@H](C)Cc3ccc(OC)c(N4CCOCC4)c3)OCOC2=CC1=O
High

Class label required: C=CC[C@H]1C[C@]2([C@H](C)Cc3cc(F)c(OC)cc3F)OCOC2=CC1=O
Low

Class label required: C=CC[C@H]1C[C@]2([C@@H](C)Cc3cc(OC)c(OC)cc3F)OCOC2=CC1=O
Mid

Class label required: C=CC[C@H]1C[C@]2(C(CC)Cc3ccc(OC)c(OC)c3)OCOC2=CC1=O (mixture of isomers)
High

Class label required: C=CC[C@H]1C[C@]2([C@@H](C)Cc3cnc(OC)cc3F)OCOC2=CC1=O
High

Class label required: C=CC[C@H]1C[C@]2(C(C)Cc3ccc(OC)c(OC(C)=O)c3)OCOC2=CC1=O (stereo partly drawn)
Mid

Class label required: C=CC[C@H]1C[C@]2([C@@H](C)Cc3ccc(OC)c(C(=O)NC)c3)OCOC2=CC1=O
High

Class label required: C=CC[C@H]1C[C@]2([C@H](C)Cc3ccc(OC)cc3)OCOC2=CC1=O
Mid

Class label required: C=CC[C@@H]1C[C@]2([C@@H](C)Cc3ccc(OC)c(OC)c3)OCOC2=CC1=O
High

Class label required: C=CC[C@H]1C[C@]2([C@H](C)Cc3ccc(OC)c(F)c3F)OCOC2=CC1=O
High

Class label required: C=CC[C@H]1C[C@]2([C@@H](C)Cc3cc(C#N)c(OC)cc3F)OCOC2=CC1=O
Mid

====

# experiment.summary: Toxicity in Crl:NU(NCr)-Foxn1 nu mouse xenografted with human LOX-IMVI cells assessed as maximum body weight loss at 30 mg/kg, ip qd administered for 7 consecutive days measured after 5 days post dose relative to control
# Assay type: organism-based
# condition.info: in vivo, 120 h
observation.type: Activity (%)
Output spec: scalar in %, unitless text.

Looking up C=CC[C@H]1C[C@]2([C@H](C)Cc3cc(O)c(OC)cc3F)OCOC2=CC1=O , I see its Activity listed as 9

====

# System: NCI/ADR-RES
# experiment.summary: Antiproliferative activity against taxane-resistant human NCI/ADR-RES cells after 72 hrs by CellTiter 96 aqueous nonradioactive cell proliferation assay
# Type: functional, cell-based
observation.type: IC50 (nM)
Output spec: scalar in nM, unitless text.

Looking up C=CC[C@H]1C[C@]2([C@H](C)Cc3cc(O)c(OC)cc3F)OCOC2=CC1=O , I see its IC50 listed as 9
